# targetEntity: Human recombinant enteropeptidase (Homo sapiens)
# Construct: purchased ITSI-Biosciences LLC #REN-260
# Sequence (P98073 whole entry): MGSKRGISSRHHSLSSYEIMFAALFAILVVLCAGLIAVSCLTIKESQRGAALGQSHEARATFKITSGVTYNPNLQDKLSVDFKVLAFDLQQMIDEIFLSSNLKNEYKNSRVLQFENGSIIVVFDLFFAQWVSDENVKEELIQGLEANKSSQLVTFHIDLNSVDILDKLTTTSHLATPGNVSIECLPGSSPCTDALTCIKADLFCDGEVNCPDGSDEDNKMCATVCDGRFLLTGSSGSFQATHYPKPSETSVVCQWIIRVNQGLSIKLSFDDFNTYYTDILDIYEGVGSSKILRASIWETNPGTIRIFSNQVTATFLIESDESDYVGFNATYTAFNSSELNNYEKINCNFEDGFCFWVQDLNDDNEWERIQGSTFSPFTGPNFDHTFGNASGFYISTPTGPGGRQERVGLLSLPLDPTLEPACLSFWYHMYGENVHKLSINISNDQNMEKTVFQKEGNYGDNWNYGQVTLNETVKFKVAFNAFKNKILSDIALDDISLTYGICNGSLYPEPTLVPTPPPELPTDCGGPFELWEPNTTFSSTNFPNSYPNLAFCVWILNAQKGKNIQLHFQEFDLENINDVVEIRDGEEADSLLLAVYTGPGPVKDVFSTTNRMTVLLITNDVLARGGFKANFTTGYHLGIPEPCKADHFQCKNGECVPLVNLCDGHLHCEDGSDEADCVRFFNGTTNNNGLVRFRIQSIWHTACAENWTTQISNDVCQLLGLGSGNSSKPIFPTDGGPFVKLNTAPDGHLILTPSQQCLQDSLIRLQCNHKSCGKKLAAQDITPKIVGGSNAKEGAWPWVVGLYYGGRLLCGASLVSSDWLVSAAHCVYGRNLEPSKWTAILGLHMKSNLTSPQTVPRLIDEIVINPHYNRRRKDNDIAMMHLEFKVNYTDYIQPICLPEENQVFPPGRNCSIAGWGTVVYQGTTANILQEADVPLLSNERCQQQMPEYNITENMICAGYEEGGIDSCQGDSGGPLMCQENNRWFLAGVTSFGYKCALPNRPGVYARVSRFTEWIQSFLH
# testMethodNotes: Human enteropeptidase inhibitory activity (Test Example 1)
# Format: biochemical
# particulars: 3.3 μM test compound; inhibition rate from fluorescence intensity at 2 hours after the start of the reaction; read-out: 3.3 μM Inhibition
Counter-ions that a name gives are not always drawn.
readoutType: inhibition at 3.3 µM

In [3]: df
Out[3]:
                                    molecule  readoutvalue
 0  N=C(N)Nc1ccc2c(c1)CCCCc1sc(C(=O)N[C@@H](CC(=O)O)C(=O)O)cc1OC2=O           45%
 1  N=C(N)Nc1ccc2c(c1)OCCCOc1c(CCC(=O)N[C@@H](CC(=O)O)C(=O)O)cccc1OC2=O [Example 43, trifluoroacetate]          101%
 2  N=C(N)Nc1ccc2c(c1)CCCOc1c(cccc1C(=O)N(Cc1ccc(C(=O)O)cc1)[C@@H](CC(=O)O)C(=O)O)OC2=O          100%
 3  Cc1cc2c(c(C(=O)N[C@@H](CC(=O)O)C(=O)O)c1)OCCCc1cc(NC(=N)N)ccc1C(=O)O2          102%
 4  N=C(N)Nc1ccc2c(c1)OCCOc1c(CCC(=O)N[C@@H](CC(=O)O)C(=O)O)cccc1OC2=O [Example 52, trifluoroacetate]          101%
 5  CN(C(=O)c1cccc2c1OCCCc1cc(NC(=N)N)ccc1C(=O)O2)[C@@H](CC(=O)O)C(=O)O          101%
 6  N=C(N)Nc1ccc2c(c1)CCCOc1c(cccc1C(=O)N(CC(=O)O)[C@@H](Cc1ccc(OCCN(CC(=O)O)CC(=O)O)cc1)C(=O)O)OC2=O          100%
 7  N=C(N)Nc1ccc2c(c1)CCCOc1c(cccc1C(=O)N(CC(=O)O)CC(=O)N(CC(=O)O)Cc1ccccc1)OC2=O          100%
 8  COC(=O)[C@H](CS(=O)(=O)O)NC(=O)c1cccc2c1OCCCc1cc(NC(=N)N)ccc1C(=O)O2          102%
 9  N=C(N)Nc1ccc2c(c1)CCCOc1c(CCC(=O)O)cccc1OC2=O [Example 91, trifluoroacetate]          102%
10  N=C(N)Nc1ccc2c(c1)CCCOc1c(cccc1C(=O)N(CC(=O)O)Cc1cc(C(=O)O)cc(C(=O)O)c1)OC2=O          102%
11  N=C(N)Nc1ccc2c(c1)CCCCc1c(CCC(=O)N[C@@H](CC(=O)O)C(=O)O)ccc(F)c1OC2=O           71%
12  CN(C(=O)CCc1cccc2c1OCCCc1cc(NC(=N)N)ccc1C(=O)O2)[C@@H](CC(=O)O)C(=O)O          101%
13  N=C(N)Nc1ccc2c(c1)CCCOc1c(cccc1C(=O)N(CC(=O)O)Cc1ccccc1C(=O)O)OC2=O          100%

----------
# targetEntity: Human recombinant enteropeptidase (Homo sapiens)
# Construct: purchased ITSI-Biosciences LLC #REN-260
# testMethodNotes: Human enteropeptidase inhibitory activity (Test Example 1)
# Type: biochemical
# particulars: 3.3 μM test compound; inhibition rate from fluorescence intensity at 2 hours after the start of the reaction; read-out: 3.3 μM Inhibition
Structures can show the parent of a compound that is named as a salt.
Each entry below carries its reported inhibition at 3.3 µM.
readoutType: inhibition at 3.3 µM (%)

                                    compound                              targetentity           readouttype  readoutvalue
 0  N=C(N)Nc1ccc2c(c1)CCCOc1c(cccc1C(=O)N[C@@H](CCC(=O)O)C(=O)O)OC2=O [Example 18]  Human recombinant enteropeptidase (Homo sapiens)  inhibition at 3.3 µM           101
 1  N=C(N)Nc1ccc2c(c1)CCCOc1c(cc(CCC(=O)O)cc1C(=O)N[C@@H](CC(=O)O)C(=O)O)OC2=O [Example 117]  Human recombinant enteropeptidase (Homo sapiens)  inhibition at 3.3 µM           100
 2  N=C(N)Nc1ccc2c(c1)CCOc1c(cccc1C(=O)N[C@@H](CC(=O)O)C(=O)O)OC2=O [Example 13, trifluoroacetate]  Human recombinant enteropeptidase (Homo sapiens)  inhibition at 3.3 µM           101
 3  N=C(N)Nc1ccc2c(c1)CCCOc1c(cccc1C(=O)N(CC(=O)O)Cc1cccc(C(=O)O)c1)OC2=O [Example 71]  Human recombinant enteropeptidase (Homo sapiens)  inhibition at 3.3 µM           100
 4  N=C(N)Nc1ccc2c(c1)CCCOc1c(CCC(=O)N[C@@H](CC(N)=O)C(=O)O)cccc1OC2=O [Example 97]  Human recombinant enteropeptidase (Homo sapiens)  inhibition at 3.3 µM           100
 5  N=C(N)Nc1ccc2c(c1)CCCOc1c(CCC(=O)NC(CC(=O)O)CC(=O)O)cccc1OC2=O [Example 96]  Human recombinant enteropeptidase (Homo sapiens)  inhibition at 3.3 µM           101
 6  C[C@@H](O)[C@H](NC(=O)c1cccc2c1OCCCc1cc(NC(=N)N)ccc1C(=O)O2)C(=O)O [Example 90]  Human recombinant enteropeptidase (Homo sapiens)  inhibition at 3.3 µM           101
 7  N=C(N)Nc1ccc2c(c1)CCCOc1c(cccc1C(=O)N[C@@H](CS(=O)(=O)O)C(=O)O)OC2=O [Example 6]  Human recombinant enteropeptidase (Homo sapiens)  inhibition at 3.3 µM           101
 8  N=C(N)c1ccc2c(c1)CCCCc1c(C(=O)N[C@@H](CC(=O)O)C(=O)O)cccc1C(=O)O2 [Example 98]  Human recombinant enteropeptidase (Homo sapiens)  inhibition at 3.3 µM            95
 9  N=C(N)Nc1ccc2c(c1)OCCCc1c(cccc1C(=O)N[C@@H](CC(=O)O)C(=O)O)OC2=O [Example 84]  Human recombinant enteropeptidase (Homo sapiens)  inhibition at 3.3 µM           101
10  N=C(N)Nc1ccc2c(c1)CCCCc1c(cc3c(c1C(=O)N[C@@H](CC(=O)O)C(=O)O)CCO3)OC2=O [Example 40]  Human recombinant enteropeptidase (Homo sapiens)  inhibition at 3.3 µM           100
11  N=C(N)Nc1ccc2c(c1)CCCOc1c(cccc1C(=O)N1CCC(C(=O)N[C@@H](CC(=O)O)C(=O)O)CC1)OC2=O [Example 101]  Human recombinant enteropeptidase (Homo sapiens)  inhibition at 3.3 µM           100
12  C[C@@H]1CCc2cc(NC(=N)N)ccc2C(=O)Oc2cccc(C(=O)N[C@@H](CC(=O)O)C(=O)O)c2C1 [Example 20]  Human recombinant enteropeptidase (Homo sapiens)  inhibition at 3.3 µM           102
13  N=C(N)Nc1ccc2c(c1)CCCOc1c(CCC(=O)N[C@@H](CC(=O)O)C(=O)O)cccc1OC2=O [Example 47]  Human recombinant enteropeptidase (Homo sapiens)  inhibition at 3.3 µM           101
14  N=C(N)Nc1ccc2c(c1)CCCOc1c(cccc1C(=O)NCC(=O)O)OC2=O [Example 89]  Human recombinant enteropeptidase (Homo sapiens)  inhibition at 3.3 µM           101
15  N=C(N)Nc1ccc2c(c1)CCCOc1cc(CCC(=O)N[C@@H](CC(=O)O)C(=O)O)ccc1OC2=O [Example 49]  Human recombinant enteropeptidase (Homo sapiens)  inhibition at 3.3 µM           100
16  N#Cc1cc2c(c(C(=O)N[C@@H](CC(=O)O)C(=O)O)c1)OCCCc1cc(NC(=N)N)ccc1C(=O)O2 [Example 114]  Human recombinant enteropeptidase (Homo sapiens)  inhibition at 3.3 µM            99
17  N=C(N)Nc1ccc2c(c1)CCCOc1c(cc(Cl)cc1C(=O)N[C@@H](CC(=O)O)C(=O)O)OC2=O [Example 66]  Human recombinant enteropeptidase (Homo sapiens)  inhibition at 3.3 µM           101
18  COc1ccc(C[C@@H](C(=O)O)N(CC(=O)O)C(=O)c2cccc3c2OCCCc2cc(NC(=N)N)ccc2C(=O)O3)cc1 [Example 94]  Human recombinant enteropeptidase (Homo sapiens)  inhibition at 3.3 µM           101
19  N=C(N)Nc1ccc2c(c1)CCc1cccc(CCC(=O)N[C@@H](CC(=O)O)C(=O)O)c1OC2=O [Example 54]  Human recombinant enteropeptidase (Homo sapiens)  inhibition at 3.3 µM            89
20  N=C(N)Nc1ccc2c(c1)OCCCCOc1c(CCC(=O)N[C@@H](CC(=O)O)C(=O)O)cccc1OC2=O [Example 42, trifluoroacetate]  Human recombinant enteropeptidase (Homo sapiens)  inhibition at 3.3 µM           100
21  N=C(N)Nc1ccc2c(c1)CCCOc1ccccc1OC2=O [Example 68, trifluoroacetate]  Human recombinant enteropeptidase (Homo sapiens)  inhibition at 3.3 µM            83
22  N=C(N)Nc1ccc2c(c1)CCCCCc1c(cccc1C(=O)N[C@@H](CC(=O)O)C(=O)O)OC2=O [Example 76]  Human recombinant enteropeptidase (Homo sapiens)  inhibition at 3.3 µM           101
